Source: ChEMBL document CHEMBL4308861

# ASSAY TARGET: hERG (KCNH2) (Homo sapiens, UniProt Q12809)
# Sequence (Q12809 whole entry): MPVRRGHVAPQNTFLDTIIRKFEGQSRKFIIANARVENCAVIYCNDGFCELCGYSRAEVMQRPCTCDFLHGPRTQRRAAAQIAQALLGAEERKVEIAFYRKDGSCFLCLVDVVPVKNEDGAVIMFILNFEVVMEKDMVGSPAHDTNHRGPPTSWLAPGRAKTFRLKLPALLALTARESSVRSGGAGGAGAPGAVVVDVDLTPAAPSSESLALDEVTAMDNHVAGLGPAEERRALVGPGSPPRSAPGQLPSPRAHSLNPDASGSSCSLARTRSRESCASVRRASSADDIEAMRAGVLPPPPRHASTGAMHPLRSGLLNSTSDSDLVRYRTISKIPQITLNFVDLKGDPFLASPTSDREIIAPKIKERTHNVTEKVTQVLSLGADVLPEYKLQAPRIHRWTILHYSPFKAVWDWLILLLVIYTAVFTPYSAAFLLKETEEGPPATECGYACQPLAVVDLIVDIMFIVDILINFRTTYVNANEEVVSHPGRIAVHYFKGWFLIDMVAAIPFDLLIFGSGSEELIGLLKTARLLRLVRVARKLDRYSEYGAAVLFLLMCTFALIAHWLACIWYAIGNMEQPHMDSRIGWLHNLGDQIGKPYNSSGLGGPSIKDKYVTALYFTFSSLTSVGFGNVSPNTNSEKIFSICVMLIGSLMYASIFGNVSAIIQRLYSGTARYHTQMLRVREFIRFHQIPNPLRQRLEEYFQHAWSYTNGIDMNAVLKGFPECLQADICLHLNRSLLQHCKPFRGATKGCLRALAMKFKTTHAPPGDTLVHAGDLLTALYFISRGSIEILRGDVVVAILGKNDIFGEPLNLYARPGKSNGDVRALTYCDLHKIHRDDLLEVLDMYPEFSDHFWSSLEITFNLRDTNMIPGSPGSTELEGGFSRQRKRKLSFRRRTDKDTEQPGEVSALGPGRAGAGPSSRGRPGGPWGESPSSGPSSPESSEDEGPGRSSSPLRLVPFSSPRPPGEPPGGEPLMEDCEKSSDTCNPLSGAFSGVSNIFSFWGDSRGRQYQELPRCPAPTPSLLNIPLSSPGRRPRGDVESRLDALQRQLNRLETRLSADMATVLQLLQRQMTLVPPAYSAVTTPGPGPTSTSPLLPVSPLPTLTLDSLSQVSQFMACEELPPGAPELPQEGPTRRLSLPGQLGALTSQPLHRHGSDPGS
# PROCEDURE TEXT: Inhibition of human ERG at 10 uM relative to control
Examples of compounds with documented inhibition at 10 µM follow.

STRUCTURE STRING	OPERATOR	inhibition at 10 µM (%)
Cc1ccc(-c2ncc(OC[C@@H]3CCNC3)cc2-c2ccc(C#N)cc2)cc1	=	90
COc1ccc(-n2c(-c3ccc(C#N)c(F)c3)nc(C(=O)N3CCC[C@@H](N)C3)c2C)cc1F	=	30
Cc1c(C(=O)N2CCC[C@@H](N)C2)nc(-c2ccc(C#N)c(F)c2)n1-c1ccc2nn(C)cc2c1	<	10
COc1ccc(-n2c(-c3ccc(C#N)c(F)c3)nc(C(=O)N[C@@H]3CCCNC3)c2C)cc1F	=	65
Cc1c(C(=O)N2CCC[C@@H](N)C2)nc(-c2ccc(C#N)c(F)c2)n1-c1ccc2c(cnn2C)c1	=	52
Cc1c(C(=O)N2CC[C@H](N(C)C)C2)nc(-c2ccc(C#N)c(F)c2)n1-c1cc2cn(C)nc2cc1F	=	44
Cc1c(C(=O)N2CC[C@H](N(C)C)C2)nc(-c2ccc(C#N)c(F)c2)n1-c1cc(F)c2nn(C)cc2c1	=	17
COc1ccc(-n2c(-c3ccc(C#N)c(F)c3)nc(C(=O)N3CCC[C@@H](N)C3)c2C)cc1	=	69
Cc1ccc(-n2c(-c3ccc(C#N)cc3)nc(C(=O)N3CCC[C@@H](N)C3)c2C)cc1	=	94
Cc1c(C(=O)N2CC[C@H](N(C)C)C2)nc(-c2ccc(C#N)c(F)c2)n1-c1ccc2nn(C)cc2c1	=	30
COc1ccc(-n2c(-c3ccc(C#N)c(F)c3)nc(C(=O)N3CC[C@H](N)C3)c2C)cc1F	=	41
CN[C@H]1CCN(C(=O)c2nc(-c3ccc(C#N)c(F)c3)n(-c3cc4cn(C)nc4cc3F)c2C)C1	=	22
Cc1c(C(=O)N2CCC[C@@H](N)C2)nc(-c2ccc(C#N)c(F)c2)n1-c1ccc2nn(C)c(Cl)c2c1	=	28
CN[C@@H]1CCCN(C(=O)c2nc(-c3ccc(C#N)c(F)c3)n(-c3ccc4nn(C)c(Cl)c4c3)c2C)C1	=	34
CN[C@H]1CCN(C(=O)c2nc(-c3ccc(C#N)c(F)c3)n(-c3ccc4nn(C)c(Cl)c4c3)c2C)C1	=	24
Cc1c(C(=O)N2CC[C@H](N)C2)nc(-c2ccc(C#N)c(F)c2)n1-c1ccc2nn(C)cc2c1	=	12

###

Measured AUC(0-t) at 6 h, listed per entry.
# PROCEDURE TEXT: AUC (0 to 6 hrs) in CD-1 mouse at 10 mg/kg, po
# Format: ADME, organism-based
# Set-up: dose 10 mg/kg, time < 6 hr, route oral
# CONDITIONS USED: in vivo

STRUCTURE STRING	AUC(0-t) at 6 h
Cc1c(C(=O)N2CC[C@H](N(C)C)C2)nc(-c2ccc(C#N)c(F)c2)n1-c1cc2cn(C)nc2cc1F	940 ng·h/mL
Cc1c(C(=O)N2CCC[C@@H](N)C2)nc(-c2ccc(C#N)c(F)c2)n1-c1ccc2c(cnn2C)c1	106 ng·h/mL
CN[C@@H]1CCCN(C(=O)c2nc(-c3ccc(C#N)c(F)c3)n(-c3ccc4nn(C)c(Cl)c4c3)c2C)C1	410 ng·h/mL
CN[C@H]1CCN(C(=O)c2nc(-c3ccc(C#N)c(F)c3)n(-c3ccc4nn(C)c(Cl)c4c3)c2C)C1	640 ng·h/mL

###

# ASSAY TARGET: Amine oxidase [flavin-containing] A (Homo sapiens)
# Sequence (P21397 whole entry): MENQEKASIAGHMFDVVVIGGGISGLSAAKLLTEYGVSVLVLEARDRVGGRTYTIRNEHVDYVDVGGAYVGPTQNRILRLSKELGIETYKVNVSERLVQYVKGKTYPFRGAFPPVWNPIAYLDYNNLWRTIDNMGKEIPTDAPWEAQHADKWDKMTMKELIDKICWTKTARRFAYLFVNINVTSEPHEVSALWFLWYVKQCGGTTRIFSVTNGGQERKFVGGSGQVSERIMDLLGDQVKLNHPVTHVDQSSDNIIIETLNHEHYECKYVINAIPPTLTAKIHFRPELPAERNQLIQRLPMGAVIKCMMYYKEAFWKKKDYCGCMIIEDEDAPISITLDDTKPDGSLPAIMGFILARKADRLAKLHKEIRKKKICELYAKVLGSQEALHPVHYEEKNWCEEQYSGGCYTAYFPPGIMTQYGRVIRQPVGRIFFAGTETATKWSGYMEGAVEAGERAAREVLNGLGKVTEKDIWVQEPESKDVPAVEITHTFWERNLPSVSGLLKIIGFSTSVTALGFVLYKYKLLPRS
# PROCEDURE TEXT: Inhibition of MAOA (unknown origin) at >20 uM

STRUCTURE STRING	inhibition (INH)
CN[C@@H]1CCCN(C(=O)c2nc(-c3ccc(C#N)c(F)c3)n(-c3ccc4nn(C)c(Cl)c4c3)c2C)C1	Active
Cc1c(C(=O)N2CC[C@H](N)C2)nc(-c2ccc(C#N)c(F)c2)n1-c1ccc2nn(C)cc2c1	Active
Cc1c(C(=O)N2CC[C@H](N(C)C)C2)nc(-c2ccc(C#N)c(F)c2)n1-c1cc2cn(C)nc2cc1F	Active
CN[C@H]1CCN(C(=O)c2nc(-c3ccc(C#N)c(F)c3)n(-c3ccc4nn(C)c(Cl)c4c3)c2C)C1	Active
Cc1c(C(=O)N2CC[C@H](N(C)C)C2)nc(-c2ccc(C#N)c(F)c2)n1-c1cc(F)c2nn(C)cc2c1	Active
Cc1c(C(=O)N2CCC[C@@H](N)C2)nc(-c2ccc(C#N)c(F)c2)n1-c1ccc2nn(C)c(Cl)c2c1	Active
Cc1c(C(=O)N2CC[C@H](N(C)C)C2)nc(-c2ccc(C#N)c(F)c2)n1-c1ccc2nn(C)cc2c1	Active
CN[C@H]1CCN(C(=O)c2nc(-c3ccc(C#N)c(F)c3)n(-c3cc4cn(C)nc4cc3F)c2C)C1	Active

###

# PROCEDURE TEXT: AUC (0 to 6 hrs) in CD-1 mouse at 10 mg/kg, po
# Format: ADME, organism-based
# Design: dose 10 mg/kg, time < 6 hr, route oral
# CONDITIONS USED: in vivo
ENDPOINT LABEL: AUC(0-t) at 6 h (ng·h/mL)

STRUCTURE STRING	ENDPOINT LABEL	UNIT INFO	DATA VALUE
Cc1c(C(=O)N2CCC[C@@H](N)C2)nc(-c2ccc(C#N)c(F)c2)n1-c1ccc2nn(C)c(Cl)c2c1	AUC(0-t) at 6 h	ng·h/mL	100
Cc1c(C(=O)N2CCC[C@@H](N)C2)nc(-c2ccc(C#N)c(F)c2)n1-c1ccc2nn(C)cc2c1	AUC(0-t) at 6 h	ng·h/mL	25
Cc1c(C(=O)N2CC[C@H](N(C)C)C2)nc(-c2ccc(C#N)c(F)c2)n1-c1cc(F)c2nn(C)cc2c1	AUC(0-t) at 6 h	ng·h/mL	660
Cc1c(C(=O)N2CC[C@H](N)C2)nc(-c2ccc(C#N)c(F)c2)n1-c1ccc2nn(C)cc2c1	AUC(0-t) at 6 h	ng·h/mL	80
Cc1c(C(=O)N2CC[C@H](N(C)C)C2)nc(-c2ccc(C#N)c(F)c2)n1-c1ccc2nn(C)cc2c1	AUC(0-t) at 6 h	ng·h/mL	760
